Recorded HIV-1 TI (CC50/EC50) values for a group of molecules are listed next.
- Test system: HIV-1
- assay_protocol: microbe, parasite or virus in culture
- experimental_context: Table 2; PBMCs

Below are worked cases with known answers.
CCCCCCCCCCCCCCCCCCSSCCOP(=O)(CO[C@H](C)Cn1cnc2c(N)ncnc21)OCCSSCCCCCCCCCCCCCCCCCC [Compound 12e] ... >76
CCCCCCCCCCCCSSCCOP(=O)(CO[C@H](C)Cn1cnc2c(N)ncnc21)OCCSSCCCCCCCCCCCC [Compound 12b] ... >85.0
CCCCCCCCCCCCCCCCSSCCOP(=O)(CO[C@H](C)Cn1cnc2c(N)ncnc21)OCCSSCCCCCCCCCCCCCCCC [Compound 12d] ... 4.0

[ask] Give its HIV-1 TI (CC50/EC50) value. Item: CCCCCCCCCCCCCCSSCCOP(=O)(CO[C@H](C)Cn1cnc2c(N)ncnc21)OCCSSCCCCCCCCCCCCCC [Compound 12c]
[reply] >529

[ask] Thanks! And CCCCCCCCCCSSCCOP(=O)(CO[C@H](C)Cn1cnc2c(N)ncnc21)OCCSSCCCCCCCCCC [Compound 12a] ?
[reply] >287

---

- Test system: PBMCs
- assay_protocol: in vitro
- Assay type: cell-based, human
- experimental_context: Table 4; read-out: CC50 (PBMCs)
Label rule met when CC50 is strictly below 30 µM; at or above that, label rule not met.

CCCCCCCCCCCCCCCCSSCCOP(=O)(COC(C)Cn1cnc2c(N)ncnc21)OCCCC (mixture of isomers) [Compound 16] ... rule met
CCCCCCCCCCCCCCCCCCOP(=O)(COC(C)Cn1cnc2c(N)ncnc21)OCCSSCCCCCCCCCCCCCCCC (mixture of isomers) [Compound 21] ... rule not met
CCCCCCCCCCCCCCCCSSCCOP(=O)(COC(C)Cn1cnc2c(N)ncnc21)OC (mixture of isomers) [Compound 13] ... rule not met
CCCCCCCCCCCCCCCCSSCCOP(=O)(COC(C)Cn1cnc2c(N)ncnc21)OCC(C)(C)C (mixture of isomers) [Compound 18] ... rule not met
CCCCCCCCCCCCCCCCSSCCOP(=O)(COC(C)Cn1cnc2c(N)ncnc21)OCC (mixture of isomers) [Compound 14] ... rule not met
CCCCCCCCCCCCCCCCSSCCOP(=O)(COC(C)Cn1cnc2c(N)ncnc21)OCc1ccccc1 (mixture of isomers) [Compound 19] ... rule not met
CCCCCCCCCCCCCCCCSSCCOP(=O)(COC(C)Cn1cnc2c(N)ncnc21)Nc1ccccc1 (mixture of isomers) [Compound 20] ... rule not met
CCCCCCCCCCCCCCCCSSCCOP(=O)(COC(C)Cn1cnc2c(N)ncnc21)OC(C)CC (mixture of isomers) [Compound 17] ... rule met

[ask] Strictly below 30 µM: is that where CC50 of CCCCCCCCCCCCCCCCSSCCOP(=O)(COC(C)Cn1cnc2c(N)ncnc21)OCCC (mixture of isomers) [Compound 15] sits?
[reply] rule met

---

- assay_protocol: in vitro
- Assay type: cell-based, human
- experimental_context: human; Table 1; viability of uninfected cells reduced by 50%; read-out: HIV-1 CC50 (PBMCs)
assay_metric: CC50

[ask] I'd like to know its CC50. The molecule in question is CCCCCCCCCCCCCCCCOCCCOP(=O)(O)CO[C@H](C)Cn1cnc2c(N)ncnc21 [CMX-157, Hexadecyloxypropyl-Tenofovir, reference compound]
[reply] > 100 µM
